# System: BT-549 breast
# measurement_protocol: NCI-60 one-dose screen, 48 h
# condition_label: 10 µM unless noted
About 83,000 compounds went through this panel and 20% of them were active in at least one assay; those are over-represented in the sample as a whole. Active and inactive are the calls of the source. How the source made its calls: active means growth percent below 10; inactive means the rest.
Choose the fitting class; nothing outside 1 = active, 0 = inactive is accepted.

C=C1C(=O)O[C@H]2[C@H]1CC/C(COC(=O)/C=C\C(=O)NCc1ccc(Cn3c(=O)sn(CCCCl)c3=O)cc1)=C\CC[C@@]1(C)O[C@@H]21 ... 0
O=C(O)CC(C(=O)O)/C(=C\c1ccccc1)c1ccccc1 (stereo not drawn) ... 0
CN1CCN(Cc2ccc(NC(=O)c3cncc(C#Cc4cnc(N)cc4C#N)c3)cc2C(F)(F)F)CC1 ... 0
C=CC(=O)Nc1cccc(Oc2nccc(Nc3nnc(-c4ccc(Br)cc4)s3)n2)c1 ... 0
CN(C)CCCn1c2c(c3ccncc3c1=O)C(=O)c1ccccc1-2 ... 1
COc1cc2c(c(OC)c1OC)C(=O)CC(c1cccc(C(=O)Nc3ccccc3Br)c1)O2 (stereo not drawn) ... 0
COc1ccc(C(c2cc(OC)c(OC)c(OC)c2)N2CCCCC2)cc1 (stereo not drawn) ... 0
O=c1oc2c(cnc3ccccc32)cc1-c1cccc(Cl)c1 ... 0
CCCCCCCCn1ccc2cc(NC(=O)CN=[N+]=[N-])ccc21 ... 0
CCOC(=O)c1cnn(CC(C)O)c1NC(=O)NCc1cccc(F)c1 (stereo not drawn) ... 0

// switching to the query molecule
INPUT: # fetch the recorded call for O=C1Nc2ccc(Cl)cc2/C1=C/c1ccc[nH]1 here
OUTPUT: 0
